assay: physchem; conditions: octanol/water
Description: Partition coefficient (logP) (HPLC)
Mark criterion met for reported logP of 3 or greater; mark criterion not met for anything smaller.

COMPOUND | CLASS NAME
O=C(c1ccc([N+](=O)[O-])cc1)c1ccc2n1CCC2C(=O)O (configuration not stated) | criterion not met
O=C(c1ccc(Br)cc1)c1ccc2n1CCC2C(=O)O (configuration not stated) | criterion met
Cc1cccc(C(=O)c2ccc3n2CCC3C(=O)O)c1 (configuration not stated) | criterion met
CCOc1cccc(C(=O)c2ccc3n2CCC3C(=O)O)c1 (configuration not stated) | criterion met
CS(=O)(=O)c1ccc(C(=O)c2ccc3n2CCCC3C(=O)O)cc1 (configuration not stated) | criterion not met
COc1cccc(C(=O)c2ccc3n2CCC3C(=O)O)c1 (configuration not stated) | criterion not met
Cc1ccccc1C(=O)c1ccc2n1CCC2C(=O)O (configuration not stated) | criterion not met
O=C(c1cccc(Cl)c1)c1ccc2n1CCCC2C(=O)O (configuration not stated) | criterion not met
O=C(c1cccc(Cl)c1)c1ccc2n1CCC2C(=O)O (configuration not stated) | criterion met
C#CCOc1ccc(C(=O)c2ccc3n2CCC3C(=O)O)cc1 (configuration not stated) | criterion met
O=C(c1ccccc1)c1ccc2n1CC(C(=O)O)C2 (configuration not stated) | criterion not met
O=C(c1ccc2n1CCC2C(=O)O)C1CCC1 (configuration not stated) | criterion not met
O=C(c1ccc(F)cc1)c1ccc2n1CCC2C(=O)O (configuration not stated) | criterion not met
O=C(c1ccc(O)cc1)c1ccc2n1CCC2C(=O)O (configuration not stated) [P-HYDROXY KETOROLAC] | criterion not met
C[S+]([O-])c1ccc(C(=O)c2ccc3n2CCC3C(=O)O)cc1 (configuration not stated) | criterion not met
O=C(c1cccc(C(F)(F)F)c1)c1ccc2n1CCC2C(=O)O (configuration not stated) | criterion met
CC(=O)c1ccc(C(=O)c2ccc3n2CCC3C(=O)O)cc1 (configuration not stated) | criterion not met
O=C(c1ccc(F)cc1F)c1ccc2n1CCC2C(=O)O (configuration not stated) | criterion not met
N#Cc1cccc(C(=O)c2ccc3n2CCC3C(=O)O)c1 (configuration not stated) | criterion not met
O=C(c1ccc(Cl)cc1Cl)c1ccc2n1CCC2C(=O)O (configuration not stated) | criterion met
O=C(c1ccc(Cl)cc1)c1ccc2n1CC(C(=O)O)C2 (configuration not stated) | criterion met
O=C(c1ccc(Cl)cc1)c1ccc2n1CCCC2C(=O)O (configuration not stated) | criterion met
O=C(c1ccc(F)cc1)c1ccc2n1CCCCC2C(=O)O (configuration not stated) | criterion met
O=C(c1ccccc1Cl)c1ccc2n1CCC2C(=O)O (configuration not stated) | criterion not met
C=CCOc1ccc(C(=O)c2ccc3n2CCC3C(=O)O)cc1 (configuration not stated) | criterion met
O=C(Cc1ccccc1)c1ccc2n1CCC2C(=O)O (configuration not stated) | criterion not met
CSc1ccc(C(=O)c2ccc3n2CCCCC3C(=O)O)cc1 (configuration not stated) | criterion met
COc1ccc(C(=O)c2ccc3n2CCCC3C(=O)O)cc1 (configuration not stated) | criterion not met
COc1ccc(C(=O)c2ccc3n2CCC3C(=O)O)cc1 (configuration not stated) [ANIROLAC] | criterion not met
CC(C)Oc1ccc(C(=O)c2ccc3n2CCC3C(=O)O)cc1 (configuration not stated) | criterion met
O=C(c1c(F)cccc1F)c1ccc2n1CCC2C(=O)O (configuration not stated) | criterion not met
CSc1ccc(C(=O)c2ccc3n2CCC3C(=O)O)cc1 (configuration not stated) | criterion met
O=C(c1cccc(O)c1)c1ccc2n1CCC2C(=O)O (configuration not stated) | criterion not met
CSc1ccc(C(=O)c2ccc3n2CCCC3C(=O)O)cc1 (configuration not stated) | criterion met
O=C(c1ccccc1)c1ccc2n1CCCCC2C(=O)O (configuration not stated) | criterion met
CS(=O)(=O)c1ccc(C(=O)c2ccc3n2CCC3C(=O)O)cc1 (configuration not stated) | criterion not met
C=Cc1ccc(C(=O)c2ccc3n2CCC3C(=O)O)cc1 (configuration not stated) | criterion met
CC(C)C(=O)Nc1cccc(C(=O)c2ccc3n2CCC3C(=O)O)c1 (configuration not stated) | criterion not met
O=C(c1ccccc1)c1ccc2n1CCC2C(=O)O (configuration not stated) [KETOROLAC] | criterion not met
O=C(c1ccc(C(F)(F)F)cc1)c1ccc2n1CCC2C(=O)O (configuration not stated) | criterion met
Cc1ccc(C(=O)c2ccc3n2CCC3C(=O)O)cc1 (configuration not stated) | criterion met
O=C(c1cccc(F)c1)c1ccc2n1CCC2C(=O)O (configuration not stated) | criterion not met
O=C(c1ccc2c(c1)OCO2)c1ccc2n1CCC2C(=O)O (configuration not stated) | criterion met
O=C(c1ccc2ccccc2c1)c1ccc2n1CCC2C(=O)O (configuration not stated) | criterion met
